target: C. elegans KCC-2 (Caenorhabditis elegans); test: […] influx into Xenopus oocytes; type: cell-based
Sequence (G5EEC9 1-1079): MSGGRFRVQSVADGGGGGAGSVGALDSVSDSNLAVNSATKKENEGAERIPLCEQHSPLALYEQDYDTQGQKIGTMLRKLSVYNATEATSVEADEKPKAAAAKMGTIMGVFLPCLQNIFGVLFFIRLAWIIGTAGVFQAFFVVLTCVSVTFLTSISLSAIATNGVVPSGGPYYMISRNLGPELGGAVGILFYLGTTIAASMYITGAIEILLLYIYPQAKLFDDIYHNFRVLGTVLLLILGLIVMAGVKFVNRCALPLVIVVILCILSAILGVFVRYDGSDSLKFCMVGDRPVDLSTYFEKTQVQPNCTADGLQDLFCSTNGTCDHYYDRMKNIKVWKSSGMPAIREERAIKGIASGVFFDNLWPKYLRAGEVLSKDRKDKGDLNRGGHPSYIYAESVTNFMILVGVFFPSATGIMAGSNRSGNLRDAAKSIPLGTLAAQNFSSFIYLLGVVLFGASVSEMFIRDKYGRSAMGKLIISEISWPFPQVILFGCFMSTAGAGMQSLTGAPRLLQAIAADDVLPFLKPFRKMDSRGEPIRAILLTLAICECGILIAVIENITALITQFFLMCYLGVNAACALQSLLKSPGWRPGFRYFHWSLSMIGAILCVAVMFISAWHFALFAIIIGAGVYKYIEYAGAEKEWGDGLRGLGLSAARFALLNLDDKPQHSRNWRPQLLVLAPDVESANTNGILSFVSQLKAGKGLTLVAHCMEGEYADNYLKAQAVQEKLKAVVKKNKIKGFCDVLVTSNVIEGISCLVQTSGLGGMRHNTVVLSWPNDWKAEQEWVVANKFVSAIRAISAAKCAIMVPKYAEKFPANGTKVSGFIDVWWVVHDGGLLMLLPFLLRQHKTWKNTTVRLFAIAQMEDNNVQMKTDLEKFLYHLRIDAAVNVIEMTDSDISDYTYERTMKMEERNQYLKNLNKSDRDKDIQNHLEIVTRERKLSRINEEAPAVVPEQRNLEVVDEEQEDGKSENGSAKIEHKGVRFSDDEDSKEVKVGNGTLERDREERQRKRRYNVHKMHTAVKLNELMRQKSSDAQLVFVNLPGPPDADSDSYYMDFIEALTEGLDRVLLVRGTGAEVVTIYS
quantity-name: pIC50
Convention used: pIC50 is expressed as -log10 of the molar concentration.

Query: Given CCCCNc1cc(C(=O)O)cc(S(N)(=O)=O)c1Oc1ccccc1 [bumetanide] , state its recorded pIC50.
Result: 4.49

----------
target: rat KCC2 (Rattus norvegicus); test: […] influx into Xenopus oocytes; conditions: hypotonic medium, 79 mM chloride, 2 mM RbCl; 0.01 mM ouabain; inhibitor
Sequence (Q63633 whole entry): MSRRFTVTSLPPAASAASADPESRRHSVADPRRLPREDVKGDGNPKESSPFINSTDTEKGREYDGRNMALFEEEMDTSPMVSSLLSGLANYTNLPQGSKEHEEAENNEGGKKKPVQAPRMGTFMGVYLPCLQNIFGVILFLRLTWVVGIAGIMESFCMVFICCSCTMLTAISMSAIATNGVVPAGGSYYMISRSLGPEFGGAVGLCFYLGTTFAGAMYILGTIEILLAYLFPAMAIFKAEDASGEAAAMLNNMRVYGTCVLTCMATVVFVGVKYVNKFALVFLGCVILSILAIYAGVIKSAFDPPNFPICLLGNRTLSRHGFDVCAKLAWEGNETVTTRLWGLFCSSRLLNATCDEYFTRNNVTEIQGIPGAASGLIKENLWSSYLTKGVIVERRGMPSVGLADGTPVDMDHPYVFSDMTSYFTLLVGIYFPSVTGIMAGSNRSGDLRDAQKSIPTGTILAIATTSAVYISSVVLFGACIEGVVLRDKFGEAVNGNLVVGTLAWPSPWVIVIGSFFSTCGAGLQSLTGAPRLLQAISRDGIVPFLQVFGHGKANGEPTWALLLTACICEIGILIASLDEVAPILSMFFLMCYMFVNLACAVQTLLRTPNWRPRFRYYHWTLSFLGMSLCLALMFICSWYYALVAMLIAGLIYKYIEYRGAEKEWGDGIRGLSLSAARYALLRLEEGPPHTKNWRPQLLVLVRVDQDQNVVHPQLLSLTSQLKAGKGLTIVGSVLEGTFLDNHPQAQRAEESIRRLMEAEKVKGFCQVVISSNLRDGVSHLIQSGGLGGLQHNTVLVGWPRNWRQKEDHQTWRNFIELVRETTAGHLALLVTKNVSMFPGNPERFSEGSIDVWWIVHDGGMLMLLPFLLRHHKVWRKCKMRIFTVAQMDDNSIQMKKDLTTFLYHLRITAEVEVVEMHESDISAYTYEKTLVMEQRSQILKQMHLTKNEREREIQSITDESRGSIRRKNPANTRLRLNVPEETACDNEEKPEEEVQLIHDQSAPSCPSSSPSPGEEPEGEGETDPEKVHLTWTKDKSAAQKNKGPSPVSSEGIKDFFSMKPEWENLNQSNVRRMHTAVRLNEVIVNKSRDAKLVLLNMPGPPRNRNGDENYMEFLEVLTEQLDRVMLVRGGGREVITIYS
quantity-name: pIC50
Convention used: pIC50 is expressed as -log10 of the molar concentration.

Query: Given CCCCNc1cc(C(=O)O)cc(S(N)(=O)=O)c1Oc1ccccc1 [bumetanide] , state its recorded pIC50.
Result: 4.14
